target: human IgG (human); experiment: competitive ELISA; told as 'previously determined for PpL'
PROPERTY_MEASURED: Kd (nM)
Write the number in nM without appending the unit.

Request: Data request, read-out Kd, for PpL (protein) MNIKFAGKETPETPEEPKEEVTIKVNLIFADGKIQTAEFKGTFEEATAEAYRYADLLAKVNGEYTADLEDGGNHMNIKFAGK
Response: 112
